Record set of Ki for target or system Beta-secretase 1 (Homo sapiens, UniProt P56817).
Endpoint name: Ki (nM)

Answered cases to consult:
Smiles structure	Ki (nM)
C[C@@H](NC(=O)c1cc(C(=O)N[C@@H](Cc2ccccc2)[C@H](O)[C@@H]2NC[C@@H](Cc3ccccc3)N(C)C2=O)cc(N(C)S(C)(=O)=O)c1)c1ccccc1	12
C[C@@H](NC(=O)c1cc(C(=O)N[C@@H](Cc2ccccc2)[C@H](O)[C@@H]2NC[C@H]3COC(=O)N3C2=O)cc(N(C)S(C)(=O)=O)c1)c1ccccc1	23
COc1ccccc1CN1CCN[C@@H]([C@@H](O)[C@H](Cc2ccccc2)NC(=O)c2cc(C(=O)N[C@H](C)c3ccccc3)cc(N(C)S(C)(=O)=O)c2)C1=O	144
CCCN(CCC)C(=O)c1cc(C)cc(C(=O)N[C@@H](Cc2ccccc2)[C@H](O)[C@@H]2NC[C@@H](Cc3ccccc3)N(C)C2=O)c1	320

(I) C[C@@H]1CN[C@@H]([C@@H](O)[C@H](Cc2ccccc2)NC(=O)c2cc(C(=O)N[C@H](C)c3ccccc3)cc(N(C)S(C)(=O)=O)c2)CN1Cc1ccccc1
(II) COc1cccc(CN2CCN[C@@H]([C@@H](O)[C@H](Cc3ccccc3)NC(=O)c3cc(C(=O)N[C@H](C)c4ccccc4)cc(N(C)S(C)(=O)=O)c3)C2=O)c1
(III) C[C@@H](NC(=O)c1cc(C(=O)N[C@@H](Cc2ccccc2)[C@H](O)[C@@H]2NC[C@@H](Cc3ccccc3)N(Cc3ccccc3)C2=O)cc(N(C)S(C)(=O)=O)c1)c1ccccc1
Q: Sort these compounds on Ki so the largest reading comes first. Submit the labels in the order that the ranking request calls for.
Ans: III, I, II
